system_tested: T1, melanocortin-1 receptor (MC1R) (UniProt Q01726 1-317, limits assumed)
T1 construct: whole, on cells; also called Hek293/MC1R cells; A375/MC1R cells
assay_details: TRF saturation binding with the Eu chelate on Hek293/MC1R cells; specific = total minus nonspecific (20x MC1RL-DOTA block)
Square brackets hold non-standard residues; d marks the D form. Side chains are listed from the residue outwards. * marks the point of attachment. 1‑phenylbutyric acid = 1-phenylbutyric acid (N-terminal acyl cap); D‑di‑Glu = D-di-Glu linker between Lys side chain and DOTA; DOTA = O=C(O)CN1CCN(CC(=O)O)CCN(CC(=O)*)CCN(CC(=O)O)CC1; Ahx = NCCCCCC(=O)O
metric: Kd (pM)

binder	reported_result
{1‑phenylbutyric acid}-H[dF]RWGK([Ahx-DOTA])-NH2 (also: 152Eu chelate, also called 1-Phenylbutyric acid-His(D)Phe-Arg-Trp-Gly-Lys(Ahx-DOTA)-CONH2, Eu chelate) [MC1RL linked through aminohexanoic acid (Ahx) to DOTA:^152Eu]	880
{1‑phenylbutyric acid}-H[dF]RWGK([D‑di‑Glu-DOTA])-NH2 (also: 152Eu chelate, also called 1-Phenylbutyric acid-His(D)Phe-Arg-Trp-Gly-Lys(D-di-Glu-DOTA)-CONH2, Eu chelate) [MC1RL linked through D-di-Glu to DOTA:^152Eu]	190
{1‑phenylbutyric acid}-H[dF]RWGK(DOTA)-NH2 (also: 152Eu chelate, also called 1-Phenylbutyric acid-His(D)Phe-Arg-Trp-Gly-Lys(DOTA)-CONH2, Eu chelate) [MC1RL linked to DOTA:^152Eu]	690
